# System: 786-0
# Measurement Notes: NCI tumour cell line growth inhibition, 48 h
The source made the active and inactive calls. Cut-off read from the data, not from the text of the source: active = GI50 up to about 1.1 µM and inactive = higher.
Metric Name: GI50

A selection of reference data follows.
CCOc1ccc(/N=N/S(=O)(=O)O)cc1
> 100 µM (inactive)
N#Cc1c2ccccc2c(Cc2ccc3c(c2)OCCOCCOCCOCCOCCO3)c2ccccc12
10.9 µM (inactive)
O=c1ccc2[n+]([O-])c3ccc(O)cc3oc-2c1 [RESAZURIN]
12.5 µM (inactive)

In the following, a different molecule is considered.
Give a short answer stating reported GI50 for CCC(=O)Nc1nc2c(ncn2C2OC(COC(=O)CC)C(OC(=O)CC)C2OC(=O)CC)c(=O)[nH]1 (centres undefined) .
> 100 µM (inactive)

====

# Tested on: PC-3
# Measurement Notes: NCI tumour cell line growth inhibition, 48 h
Activity calls are given as the source filed them. No stated cut-off is given here; in the data, active = GI50 up to about 1.1 µM and inactive = higher.
Metric Name: GI50

CC(OCc1ccccc1)C(NC(=O)C1CSSCC(NC(=O)C(Cc2ccccc2)NC(=O)OCc2ccccc2)C(=O)NC(Cc2ccccc2)C(=O)NC(Cc2cn(C=O)c3ccccc23)C(=O)NC(CCCCNC(=O)OCc2ccccc2)C(=O)NC(C(C)OCc2ccccc2)C(=O)N1)C(N)=O (stereo not drawn)
19.1 µM (inactive)

Please supply the value of reported GI50 for the item N#CC12CC=C(c3ccccc3)N=C1NC(c1ccccc1)=CC2 (stereo not drawn)
33.9 µM (inactive)

State, in one line, measured GI50 of Cc1ccc2oc3c(c(Br)c(Br)n3C)c(=O)c2c1
35 µM (inactive)

====

Known GI50 of a selection of compounds
# Tested on: SK-MEL-28
# Measurement Notes: NCI tumour cell line growth inhibition, 48 h
Calls of active or inactive are those of the source. No stated cut-off is given here; in the data, active = GI50 up to about 1.1 µM and inactive = higher.

Solved cases (2 shown):
CN(C)CCNc1ccc(NCC[N+](C)(C)Cc2ccc([N+](=O)[O-])cc2)c2c1C(=O)c1ccccc1C2=O
> 25 µM (inactive)
C[n+]1cccc2c(=O)c3ccccc3oc21
> 100 µM (inactive)

State GI50 on SK-MEL-28. Entry: CCO/C([O-])=C(\C(=O)c1ccc([N+](=O)[O-])cc1)[n+]1c(C)n(C)c2ccccc21
> 100 µM (inactive)

State GI50 on SK-MEL-28. Entry: CCOC(=O)N1CCC(=O)C(CNC23CC4CC(CC(C4)C2)C3)C1 (stereo not given)
18.2 µM (inactive)

Quote SK-MEL-28 GI50 for entry Cc1nc(SCC(=O)Nc2ccccc2)c2sc(=S)n(-c3ccccc3)c2n1 .
> 10 µM (inactive)

State the measured GI50 (SK-MEL-28) of OC[C@H](O)[C@@H](OCc1ccccc1)[C@H](NCc1ccccc1)c1cccs1
> 100 µM (inactive)

Provide GI50, tested on SK-MEL-28, for C[Si](C)(C)C1=C([Si](C)(C)C)C(Cl)(Cl)C1=O .
2.79 µM (inactive)

Fetch value of GI50 on SK-MEL-28 for O=C(c1ccccc1)c1cc[n+](C2=C([N-]S(=O)(=O)c3ccccc3)C(=O)c3ccccc3C2=O)cc1 .
3.22 µM (inactive)

====

GI50 by entry:
# Tested on: EKVX
# Measurement Notes: NCI tumour cell line growth inhibition, 48 h
Active and inactive are the calls of the source. Cut-off read from the data, not from the text of the source: active = GI50 up to about 1.1 µM and inactive = higher.

Worked cases, GI50 given:
Cc1cccc2c(N)c3cccc(C(=O)NCCCNCCN)c3nc12
13.8 µM (inactive)
CCCCCCCCCCCC(=O)OCC1OC(n2cc(F)c(=O)[nH]c2=O)C(N)C(OC(=O)CCCCCCCCCCC)C1O (stereo not given)
> 100 µM (inactive)
CC(C)(CC(O)C#N)/[N+]([O-])=[N+](\[O-])C(C)(C)CC(O)C#N (stereo not given)
32.6 µM (inactive)
CCCCCCN(CCCCCC)CCC(=O)c1ccc2cc(Br)c3ccccc3c2c1
> 100 µM (inactive)
COc1ccc2nc3ccccc3c(NCCN(C)CCCl)c2c1
1.51 µM (inactive)
c1ccc2c3nc(C4CCCC4)nc-3c(NC3CCCC3)[nH]c2c1
57.4 µM (inactive)

// fetch GI50 given entry C/C(CCOC1CCCCO1)=C(\C)[Si](C)(C)C (stereo not given)
> 100 µM (inactive)

Answer with the recorded GI50 for the compound listed here: C/C(=N\NC(=O)CC#N)C(CN1CCCCC1)C(c1ccccc1)c1c(O)c2ccccc2oc1=O (stereo not given)
> 100 µM (inactive)

Input CN(Cc1cnc2nc(N)nc(N)c2n1)c1ccc(C(=O)NC(CCS(=O)(=O)O)C(=O)O)cc1 (stereo not given) , output reported GI50.
1.31 µM (inactive)

Please list GI50 recorded for the compound COc1ccc(C2SC(=N)Nc3c2c(C)nn3C(=O)c2ccccc2O)cc1 (stereo not given)
7.38 µM (inactive)
